B1: SLC35F2 (parent)
chain: QYLAERYKVNTPMLQSFINYCLLF

# Variants of: B1
# PROTOCOL_NOTES: protein stability index of a GFP-peptide fusion (GPS, HEK-293T) (PSI 1-6); higher = more stable;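 note: lentivirally expressed fusions sorted by FACS into six bins by GFP to DsRed ratio, PSI derived from sequencing read proportions per bin multiplied by bin number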
# CONDITION_PARAMETERS: c terminus: a fixed tail appended
Record true (1) whenever protein stability index is at 2 or higher; record false (0) when lower.

Worked examples follow.
QYLACRYKVNTPMLQSFINYCLLF [E5C]; true (1)
RYLAERYKVNTPMLQSFINYCLLF [Q1R]; false (0)
QYLAERYKVNTPMLQSFINYELLF [C21E]; false (0)
QYLAERYKVNTPMEQSFINYCLLF [L14E]; true (1)

Please look at the following variant next.
Request: Test whether the variant QYLAERYKVNTPMLQSFINYWLLF [C21W] records protein stability index of 2 or higher.
Response: true (1)
